Assay: in vivo
Conditions: rat, not told
Observed Property: half-life (min)
Write down the numeric answer in min and omit the unit.

For record "O=C1NC(=O)C(c2ccccc2)(c2ccccc2)N1" the listed half-life is 17

* * *

Assay: Brain efflux index
Type: in vivo, mouse
Conditions: mouse, brain (ipsilateral hemisphere), 0.019 μCi/0.3 μL (= 1.15 mM)
Observed Property: half-life

For record "O=C1NC(=O)C(c2ccccc2)(c2ccccc2)N1" the listed half-life is 31 min

# credit: paper PMC8906351
